test: Long term stability of model analytes in dried oral fluid stored 30 days on alginate or chitosan foam; assay type: physicochemical, human; settings: oral fluid on chitosan foam; theoretical 100 ng/ml; stored at −18 C; n = 3
Where a name gives a salt, the structure may show the parent alone.
Test Readout: Measured concentration at day 30 (ng/mL)
Record the value in ng/mL, omitting the unit from your answer.

Q) Return value of Measured concentration at day 30 for input CN[C@@H](C)Cc1ccccc1 [Methamphetamine] , no commentary.
A) 117

Q) Return value of Measured concentration at day 30 for input CNC(C)Cc1ccc(OC)cc1 (centres unmarked) [PMMA, para-methoxymethamphetamine] , no commentary.
A) 119

Q) Return value of Measured concentration at day 30 for input CO[C@@]12CC[C@@]3(C[C@@H]1[C@](C)(O)C(C)(C)C)[C@H]1Cc4ccc(O)c5c4[C@@]3(CCN1CC1CC1)[C@H]2O5.Cl [Buprenorphine, buprenorphine hydrochloride] , no commentary.
A) 101

Q) Return value of Measured concentration at day 30 for input CCC(=O)C(CC(C)N(C)C)(c1ccccc1)c1ccccc1 (centres unmarked) [Methadone, Methadone hydrochloride] , no commentary.
A) 105

Q) Return value of Measured concentration at day 30 for input COc1ccc(CC(C)N)cc1 (centres unmarked) [PMA, para-methoxyamphetamine] , no commentary.
A) 122
